Test system: spontaneous lipoperoxidation of rat's brain membranes
experiment summary: Spontaneous lipoperoxidation of rat brain membranes (malondialdehyde production)
Format: biochemical
reported conditions: inhibition of spontaneous lipoperoxidation, rat brain membranes; read-out: IC50
property label: IC50 (µM)
Just the number in µM, nothing appended.

Prompt: Lab note: need IC50 for "O=c1c(O)c(-c2ccc(O)c(O)c2)oc2cc(O)cc(O)c12" on spontaneous lipoperoxidation of rat's brain membranes, anyone have it?
Response: 3.7

Prompt: Likewise for "COc1ccc2[nH]cc(CCNC(C)=O)c2c1" ?
Response: 1400

Prompt: Again, but for Oc1cc(O)c2c(c1)OC(c1ccc(O)c(O)c1)C(O)C2 (centres unmarked)
Response: 28.3

Prompt: Can you handle "O=C(O)/C=C/c1ccc(O)c(O)c1" next?
Response: 48.6

Prompt: Try this molecule next: "COc1cc2c(cc1O)C[C@H]1c3c(cc(O)c(OC)c3-2)CCN1C"
Response: 12.8
